Reference source: patent EP4786466A1

- Tested on: pENSA
- assay info: pENSA level by immunofluorescence (described method: in vitro kinase analysis with GST-tag-MASTL and His-tag-ENSA)
- Assay type: cell-based
- conditions used: unit µM; read-out: IC50 pENSA
metric: IC50 (µM)
Give a bare numeral; the unit µM is implied.

Field request: IC50 | item: c1ccc2c(Nc3cc(C4CC4)[nH]n3)nc(Nc3ccc4[nH]ncc4c3)nc2c1 [compound 4dd]
1.5

Field request: IC50 | item: O=S(=O)(c1cccs1)N1CC2CC1CN2c1nc(Nc2cc(C3CC3)[nH]n2)c2ccccc2n1 (stereo not shown) [compound 15ab]
2.5

Field request: IC50 | item: N#Cc1ccccc1S(=O)(=O)N1CC2CCC1CN2c1nc(Nc2cc(C3CC3)[nH]n2)c2ccccc2n1 (stereo not shown) [compound 24e]
1.9

Field request: IC50 | item: O=S(=O)(C1CCCCC1)N1CC2CC1CN2c1nc(Nc2cc(C3CC3)[nH]n2)c2ccccc2n1 (stereo not shown) [compound 15k]
3.5

Field request: IC50 | item: COc1cccc(S(=O)(=O)N2CC3CC2CN3c2nc(Nc3cc(C4CC4)[nH]n3)c3ccccc3n2)c1 (stereo not shown) [compound 15r]
5.5

Field request: IC50 | item: CC(=O)c1ccc(S(=O)(=O)N2CC3CC2CN3c2nc(Nc3cc(C4CC4)[nH]n3)c3ccccc3n2)cc1 (stereo not shown) [compound 15s]
2.2

Proceed to the following item.
Field request: IC50 | item: O=S(=O)(C1CC1)N1CC2CC1CN2c1nc(Nc2cc(C3CC3)[nH]n2)c2ccccc2n1 (stereo not shown) [compound 15i]
2.1
